# System name: T1, soluble human FcRn (shFcRn) (human, UniProt P55899 24-297; P61769 21-119)
# T1 construct: Biotinylated for the ELISA, amine-coupled to a CM5 chip for SPR; also called biotinylated shFcRn
# T1 sequence (P55899 24-297 limits assumed, chain 1 of 2): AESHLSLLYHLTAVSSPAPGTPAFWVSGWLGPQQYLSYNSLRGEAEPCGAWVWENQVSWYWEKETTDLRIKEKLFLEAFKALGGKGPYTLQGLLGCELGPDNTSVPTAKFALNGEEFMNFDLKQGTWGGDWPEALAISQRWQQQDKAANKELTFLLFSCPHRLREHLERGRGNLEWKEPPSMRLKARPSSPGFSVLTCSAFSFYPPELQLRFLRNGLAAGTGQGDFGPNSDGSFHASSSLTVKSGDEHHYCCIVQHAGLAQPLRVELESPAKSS
# T1 sequence (P61769 21-119 limits assumed, chain 2 of 2): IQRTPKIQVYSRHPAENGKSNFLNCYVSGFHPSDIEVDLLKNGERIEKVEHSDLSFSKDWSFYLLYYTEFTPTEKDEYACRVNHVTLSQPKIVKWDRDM
# Experimental protocol: IgG competition ELISA
Bridge positions count the residues as written; N and C are the ends. Square brackets hold non-standard residues; d marks the D form. Ends that are not written are not given here. Pen = CC(C)(S)[C@H](N)C(=O)O
Quantity measured: IC50

• QR[dF][Pen]TGHFGGLYPCNGP-NH2 (disulfide 4-14; N-terminus assumed; SMILES CC(C)C[C@@H]1NC(=O)CNC(=O)CNC(=O)[C@H](Cc2ccccc2)NC(=O)[C@H](Cc2c[nH]cn2)NC(=O)CNC(=O)[C@H]([C@@H](C)O)NC(=O)[C@@H](NC(=O)[C@@H](Cc2ccccc2)NC(=O)[C@H](CCCNC(=N)N)NC(=O)[C@@H](N)CCC(N)=O)C(C)(C)SSC[C@@H](C(=O)N[C@@H](CC(N)=O)C(=O)NCC(=O)N2CCC[C@H]2C(N)=O)NC(=O)[C@@H]2CCCN2C(=O)[C@H](Cc2ccc(O)cc2)NC1=O) [Peptide No. 96] = 11400 nM
• QRW[Pen]TGHFGGLYPCNGP-NH2 (disulfide 4-14; N-terminus assumed; SMILES CC(C)C[C@@H]1NC(=O)CNC(=O)CNC(=O)[C@H](Cc2ccccc2)NC(=O)[C@H](Cc2c[nH]cn2)NC(=O)CNC(=O)[C@H]([C@@H](C)O)NC(=O)[C@@H](NC(=O)[C@H](Cc2c[nH]c3ccccc23)NC(=O)[C@H](CCCNC(=N)N)NC(=O)[C@@H](N)CCC(N)=O)C(C)(C)SSC[C@@H](C(=O)N[C@@H](CC(N)=O)C(=O)NCC(=O)N2CCC[C@H]2C(N)=O)NC(=O)[C@@H]2CCCN2C(=O)[C@H](Cc2ccc(O)cc2)NC1=O) [Peptide No. 98] = 1500 nM
• QRF[Pen]TGHFGGLYPCNGP-NH2 (disulfide 4-14; N-terminus assumed; SMILES CC(C)C[C@@H]1NC(=O)CNC(=O)CNC(=O)[C@H](Cc2ccccc2)NC(=O)[C@H](Cc2c[nH]cn2)NC(=O)CNC(=O)[C@H]([C@@H](C)O)NC(=O)[C@@H](NC(=O)[C@H](Cc2ccccc2)NC(=O)[C@H](CCCNC(=N)N)NC(=O)[C@@H](N)CCC(N)=O)C(C)(C)SSC[C@@H](C(=O)N[C@@H](CC(N)=O)C(=O)NCC(=O)N2CCC[C@H]2C(N)=O)NC(=O)[C@@H]2CCCN2C(=O)[C@H](Cc2ccc(O)cc2)NC1=O) [Peptide No. 32] = 2000 nM
